B1: MGC27345 (parent)
chain: KYMPHLCQDSSGEVSCQCQLHPPR

# Variants of: B1
# Procedure Details: protein stability index of a GFP-peptide fusion (GPS, HEK-293T) (PSI 1-6); higher = more stable;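 further: lentivirally expressed fusions sorted by FACS into six bins by GFP to DsRed ratio, PSI derived from sequencing read proportions per bin multiplied by bin number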
# Cond: c terminus: a fixed tail appended
Catalogue of variants with associated protein stability index
Could you keep your reply to the number by itself?

Consider the reported protein stability index for these variants:
P22G :: 3.29
M3F :: 1.99
H21D :: 2.6
P22Y :: 2.45
Q19F :: 2.71

Kindly consider the entry below.
Determine from records and report protein stability index for P23D
3.71
